Consider the following molecules; for each one, report its Kb.
Biological target: Melanocortin receptor 3 (Mus musculus, UniProt P33033)
Sequence (P33033 whole entry): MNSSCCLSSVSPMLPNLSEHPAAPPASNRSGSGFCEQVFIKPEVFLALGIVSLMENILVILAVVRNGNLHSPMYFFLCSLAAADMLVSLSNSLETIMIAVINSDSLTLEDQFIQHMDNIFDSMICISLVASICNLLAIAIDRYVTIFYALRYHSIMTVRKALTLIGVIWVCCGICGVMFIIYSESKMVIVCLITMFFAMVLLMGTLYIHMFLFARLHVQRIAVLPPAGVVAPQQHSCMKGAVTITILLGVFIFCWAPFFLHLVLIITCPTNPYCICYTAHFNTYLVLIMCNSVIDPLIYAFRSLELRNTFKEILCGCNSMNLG
Assay: Antagonist activity at mouse melanocortin receptor 3 expressed in HEK293 cells assessed as inhibition of NDP-MSH-induced cAMP accumulation incubated for 2 hrs by cAMP Alpha-screen assay based Schild analysis
Assay type: functional, cell-based
Conditions: read-out: pA2 (converted)
Square brackets hold non-standard residues; d marks the D form. Peptide text beside a SMILES is read from it. dPhe(4-I) = N[C@H](Cc1ccc(I)cc1)C(=O)O; d2Nal = N[C@H](Cc1ccc2ccccc2c1)C(=O)O
Give bare numbers, in nM.

See these solved cases before continuing.
Molecule	Test system	Test readout	Reading
CC(=O)N[C@H](Cc1ccc2ccccc2c1)C(=O)N[C@@H](CCCNC(=N)N)C(=O)N[C@H](Cc1ccc2ccccc2c1)C(=O)N[C@H](CCCCN)C(N)=O (Ac-[d2Nal]R[d2Nal][dK]-NH2)	Melanocortin receptor 3 (Mus musculus, UniProt P33033)	Kb	1000
CC(=O)N[C@H](Cc1ccc(I)cc1)C(=O)N[C@@H](CCCNC(=N)N)C(=O)N[C@H](Cc1ccc(I)cc1)C(=O)N[C@@H](CCCNC(=N)N)C(N)=O (Ac-[dPhe(4-I)]R[dPhe(4-I)]R-NH2)	Melanocortin receptor 3 (Mus musculus, UniProt P33033)	Kb	39.8
CC(=O)N[C@H](Cc1ccc(I)cc1)C(=O)N[C@@H](CCCNC(=N)N)C(=O)N[C@H](Cc1ccc(I)cc1)C(=O)N[C@H](CCCCN)C(N)=O (Ac-[dPhe(4-I)]R[dPhe(4-I)][dK]-NH2)	Melanocortin receptor 3 (Mus musculus, UniProt P33033)	Kb	31.6

Annotate the molecule CC(=O)N[C@H](Cc1ccc2ccccc2c1)C(=O)N[C@H](Cc1ccc2ccccc2c1)C(=O)N[C@@H](Cc1c[nH]c2ccccc12)C(=O)N[C@H](CCCCN)C(N)=O (Ac-[d2Nal][d2Nal]W[dK]-NH2) with its measured Kb.
1580

###

Target: Melanocortin receptor 5 (Mus musculus) (UniProt P41149)
Sequence (P41149 whole entry): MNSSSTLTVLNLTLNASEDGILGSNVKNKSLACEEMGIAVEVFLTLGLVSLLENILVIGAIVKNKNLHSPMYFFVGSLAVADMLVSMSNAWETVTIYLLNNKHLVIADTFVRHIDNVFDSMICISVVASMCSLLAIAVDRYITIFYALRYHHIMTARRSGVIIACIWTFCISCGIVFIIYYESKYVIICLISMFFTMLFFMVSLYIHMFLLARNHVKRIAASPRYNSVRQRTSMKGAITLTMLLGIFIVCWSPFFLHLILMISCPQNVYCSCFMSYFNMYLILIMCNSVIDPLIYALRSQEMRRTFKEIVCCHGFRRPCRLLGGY
Assay: Agonist activity at mouse MC5R expressed in HEK293 cells assessed as induction of cAMP level at 100 uM incubated for 2 hr by alphaScreen assay relative to control
Assay type: functional, cell-based
Conditions: filed as agonist
Square brackets hold non-standard residues; d marks the D form. Peptide text beside a SMILES is read from it. dPhe(4-I) = N[C@H](Cc1ccc(I)cc1)C(=O)O; 2Nal = N[C@@H](Cc1ccc2ccccc2c1)C(=O)O; d2Nal = N[C@H](Cc1ccc2ccccc2c1)C(=O)O
Consider the following compounds; for each one, report its Activity.
One number for each entry, in %.

See these solved cases before continuing.
Compound	Measurement unit	Activity
CC(=O)N[C@H](Cc1ccc2ccccc2c1)C(=O)N[C@@H](CCCNC(=N)N)C(=O)N[C@H](Cc1ccc(I)cc1)C(=O)N[C@H](Cc1ccc2ccccc2c1)C(N)=O (Ac-[d2Nal]R[dPhe(4-I)][d2Nal]-NH2)	%	40
CC(=O)N[C@H](Cc1ccc2ccccc2c1)C(=O)N[C@H](Cc1ccc2ccccc2c1)C(=O)N[C@@H](Cc1c[nH]c2ccccc12)C(=O)N[C@@H](CCCNC(=N)N)C(N)=O (Ac-[d2Nal][d2Nal]WR-NH2)	%	45
CC(=O)N[C@H](Cc1ccc(I)cc1)C(=O)N[C@@H](CCCNC(=N)N)C(=O)N[C@H](Cc1ccc(I)cc1)C(=O)N[C@H](Cc1ccc2ccccc2c1)C(N)=O (Ac-[dPhe(4-I)]R[dPhe(4-I)][d2Nal]-NH2)	%	65
CC(=O)N[C@H](Cc1ccc(I)cc1)C(=O)N[C@H](Cc1ccc2ccccc2c1)C(=O)N[C@@H](Cc1ccc2ccccc2c1)C(=O)N[C@H](CCCCN)C(N)=O (Ac-[dPhe(4-I)][d2Nal][2Nal][dK]-NH2)	%	50

Then this compound:
Annotate the compound CC(=O)N[C@H](Cc1ccc2ccccc2c1)C(=O)N[C@H](Cc1ccc2ccccc2c1)C(=O)N[C@@H](Cc1ccc2ccccc2c1)C(=O)N[C@@H](CCCNC(=N)N)C(N)=O with its measured Activity.
40
